Where do these numbers come from? They come from PubChem BioAssay (NCI).

System: SF-539 CNS
Assay: NCI tumour cell line growth inhibition, 48 h
PARAMETER MEASURED: TGI

1) CCCOP(=O)(OCCC)OC(C(F)(F)F)C(F)(F)F; > 100 µM

For every item below, please supply its TGI.
1. COC(=O)C(=O)C(C(=O)C(=O)Nc1ccccc1OC)c1nc2ccc([N+](=O)[O-])cc2[nH]c1=O (stereo not given)
2. CCOC(=O)/C=C(\C(=O)OCC)n1cc(Cl)c(=O)n(CC(=O)OCC)c1=O
3. COc1cc(OC)c(OC)cc1/C=C/c1cnnc2ccccc12
4. COC1CCC(OC)C(C2(C3CC(OC)CCC3OC)OC(=O)c3ccccc32)C1 (stereo not given)
5. C=CCN1/C(=C2\SC(=S)N(c3ccc(C)cc3)C2=O)Sc2c1ncn(C)c2=O
6. COc1ccc2c(c1OC)C(C(Cl)(Cl)Cl)N1CCc3cc4c(cc3C1=C2)OCO4 (stereo not given)

(A)
1. > 100 µM
2. 28.5 µM
3. > 10 µM
4. > 100 µM
5. > 100 µM
6. > 100 µM

For every item below, please supply its TGI.
1. C#CC1(O)CCC2[C@@H]3CCc4cc(Oc5nc(F)nc(-c6c7ccccc7c(SCC)n6CCC)n5)ccc4C3CC[C@@]21C (stereo not given in full)
2. CCCN(CCC)C(=O)c1nc(N)nc(-c2ccc(OC)cc2)c1-c1ccc(OC)cc1
3. O=[N+]([O-])c1cc(F)ccc1S(=O)(=O)c1ccccc1

(A)
["> 100 µM", "> 100 µM", "> 10 µM"]

###

System: MCF7 breast
Assay: NCI tumour cell line growth inhibition, 48 h; in the data active = GI50 below about 0.43 µM; inactive = the rest
Permitted responses: T (active), F (inactive)

Below are worked cases with known answers.
1) O=CN1N=C(c2cccc(Nc3ccnc4cc(Cl)ccc34)c2)CC1c1ccccc1 (stereo not drawn); T
2) COc1ccc(/C(C#N)=C/c2cc(OC)c(OC)c(OC)c2)cc1; F
3) CC(=O)/C=C/C1=C(c2csc3ccccc23)c2ccccc2CC1; F
4) Cn1nc(C(F)(F)F)c(-c2cc(C(F)(F)F)cc(C(F)(F)F)c2)c1-c1ccc(OCc2ccc(Cl)cc2)cc1O; F
5) CC([C@H]1CC=C2C3CCC4=C[C@@H](N(C)C)CC[C@]4(C)C3CC[C@@]21C)N(C)C (stereo partly drawn); F
6) C[C@H]1CNC(=O)c2cnn3ccc(nc23)N[C@H](C)c2cc(F)ccc2O1; T
7) CN(C)CCCC1(c2ccc(F)cc2)OCc2cc(-c3cc4ccccc4s3)ccc21 (stereo not drawn); F
8) CC(C)c1cccc(O)c(=O)c1; F

(Q) Short answer needed: outcome of this test for "Cn1c(-c2ccccc2)c(/C=C/C2=[N+](C)c3ccccc3C2(C)C)c2ccccc21" ?
(A) F

(Q) Short answer needed: outcome of this test for "CC(=O)O[C@H]1C(=O)[C@@]2(C)[C@H]([C@H](OC(=O)c3ccccc3)[C@]3(O)C[C@H](OC(=O)[C@H](OC(=O)OC[C@H]4COC(C)(C)O4)[C@@H](NC(=O)c4ccccc4)c4ccccc4)C(C)=C1C3(C)C)[C@]1(OC(C)=O)CO[C@@H]1C[C@@H]2O" ?
(A) T

(Q) Short answer needed: outcome of this test for "O=C(Nc1ccc(F)cc1)Nc1ccc(Br)c(C(F)(F)F)c1" ?
(A) F

(Q) Short answer needed: outcome of this test for "C=C1SC(=Nc2ccccc2Cl)N(C(=O)c2sc3ccccc3c2Cl)C12CCCCC2" ?
(A) F

(Q) Short answer needed: outcome of this test for "CCCCCCCCCCCCCCCCOP(=O)([O-])OCC[N+](C)(C)C" ?
(A) F

###

Tested on: CAKI-1 renal
Assay: NCI tumour cell line growth inhibition, 48 h
Task for the reader: assign each of the following compounds its reported TGI.

Previously resolved entries follow.
1. CCOC(=O)C(Cc1ccccc1)NC(=O)c1[nH]cnc1/N=N/N(C)C (stereo unspecified); > 100 µM
2. O=C(N/N=C\c1cccc2ccccc12)Nc1cccc2ccccc12; 83.4 µM
3. O=CN1N=C(c2cccc(Nc3ccnc4cc(Cl)ccc34)c2)CC1c1ccccc1 (stereo unspecified); 7.54 µM

For every item below, please supply its TGI.
1. CCOc1ccc(C(C)c2cc3c(cc2OC)OCO3)cc1 (stereo unspecified)
2. CC1=NOC(=O)/C1=C/c1ccc([N+](=O)[O-])cc1
3. COC(=O)c1c2c(c(C)[n+]([O-])c1C)C(=O)C=C(NCc1cccc(Cl)c1)C2=O
4. CN1CCc2c(sc3ncn(Nc4ccc(Cl)cc4)c(=N)c23)C1
5. COc1ccc2c(c1OC)C(C(Cl)(Cl)Cl)N1CCc3cc4c(cc3C1=C2)OCO4 (stereo unspecified)

(A)
1. > 100 µM
2. > 100 µM
3. 1.95 µM
4. > 100 µM
5. > 100 µM

For every item below, please supply its TGI.
1. Cc1cc2c(cc1C)C(=O)C1(C2)Cc2cc3c(cc2C1=O)CCC3 (stereo unspecified)
2. O=c1[nH]nc(Cc2ccccc2)n1/N=C/c1cccnc1

(A)
1: > 100 µM; 2: > 100 µM

(Q) Using the record for c1ccc(SC23C4C5C6C4C2C6C53)nc1 (stereo unspecified) , report its TGI.
(A) > 100 µM

###

Task for the reader: assign each of the following molecules its reported TGI.
Tested on: HL-60(TB) leukemia
Test: NCI tumour cell line growth inhibition, 48 h
*1 amine or outer side, *2 acyl side, *3 side chain or, on linkers, in order; H or OH if unused. Where a SMILES comes first, the peptide text is derived from it. Bridges are numbered along the chain shown (N, C = ends). Roman numbers before positions name the chains, in order. [ ]: non-standard residue; d: D form. Actinocin(9to1) = Cc1c2oc3c(C)ccc(C(=O)[*:1])c3nc-2c(C(=O)[*:2])c(N)c1=O; Hyp = O=C(O)[CH]1C[CH](O)CN1; NMeV = CN[CH](C(=O)O)C(C)C; Sar = CNCC(=O)O

Previously resolved entries follow.
1. Cc1nc2c(cc1OCc1ccccc1)C(=O)C1=C(C2=O)C2OC(=O)CC2OC1(C)C (stereo unspecified); 0.371 µM
2. CN(CCCNC(=O)c1nn(C)c2c1Cc1ccccc1-2)CCCNC(=O)c1nn(C)c2c1Cc1ccccc1-2; 10.8 µM
3. Cc1c2oc3c(C)ccc(C(=O)NC4C(=O)NC(C(C)C)C(=O)N5CC(O)CC5C(=O)N(C)CC(=O)N(C)C(C(C)C)C(=O)OC4C)c3nc-2c(C(=O)NC2C(=O)NC(C(C)C)C(=O)N3CC(O)CC3C(=O)N(C)CC(=O)N(C)C(C(C)C)C(=O)OC2C)c(N)c1=O (stereo unspecified) (I: TV[Hyp][Sar][NMeV] / II: TV[Hyp][Sar][NMeV]; ester I:1-I:C, II:1-II:C; linker I:N-II:N via Actinocin(9to1); configuration not given here); > 1 µM

For every item below, please supply its TGI.
1. CCC(CC)(CO)CNc1cc(Cl)nc(N)n1
2. C1CN(P2(N3CC3)=NP(N3CC3)(N3CC3)=NP(N3CC3)(N3CC3)=N2)CCO1 (stereo unspecified)
3. Cc1ccc(S(=O)(=O)C2=c3nc4ccccc4cc3=C3C(=O)c4ccccc4C(=O)C32)cc1 (stereo unspecified)
4. Cc1ccc(-c2cc[n+]3c(n2)oc2ccccc23)cc1
5. COC(=O)[C@]1(c2ccc(N(C)C)cc2OC)C[C@@H]2CCCN(CCc3c1[nH]c1ccccc31)C2
6. O=C(/C=C1\C(=O)N(Cc2ccccc2)c2ccccc21)c1ccc(OCCN2CCCCC2)cc1
7. N/C(=N\Nc1ccc(Cl)cc1)c1cnccn1

(A)
1: > 100 µM; 2: > 100 µM; 3: > 100 µM; 4: 44.2 µM; 5: 27.3 µM; 6: 4.39 µM; 7: > 100 µM

For every item below, please supply its TGI.
1. CC(=O)/C=C/C1=C(c2csc3ccccc23)c2ccccc2CC1
2. COC(=O)c1c2c(c(C)[n+]([O-])c1C)C(=O)C=C(NCc1cccc(Cl)c1)C2=O
3. CC(=O)OC12c3ccccc3-c3ccccc3C1C(C(=O)O)C2C(=O)O (stereo unspecified)
4. O=C(OC1CN2CCC1CC2)N(c1ccccc1)c1ccccc1 (stereo unspecified)
5. N/N=C(\c1nc2ccc(Cl)cc2[nH]c1=O)C(O)c1ccc(Cl)c(Cl)c1 (stereo unspecified)

(A)
1: 58.3 µM; 2: 0.935 µM; 3: > 10 µM; 4: > 100 µM; 5: > 100 µM

For every item below, please supply its TGI.
1. COc1ccc(NC(C(N)=O)c2cc3cc(Br)ccc3nc2Cl)cc1 (stereo unspecified)
2. C=C(C)[C@H]1C2=CC(C)=C(O2)[C@@H](O)[C@H](C(=C)C)CCC2=C[C@H]1OC2=O
3. CCCCc1ccc(Nc2nc(Cl)c3ccn(C4CC(Oc5ccc(C)cc5)C(COc5ccc(C)cc5)O4)c3n2)cc1 (stereo unspecified)
4. COC(=O)C(Cc1c[nH]c2ccccc12)NP(=O)(O)OCC1OC(n2cc(Br)c(=O)[nH]c2=O)CC1O (stereo unspecified)
5. C[C@H]1COCCN1c1cc(C2(S(=O)(=O)C3CC3)CC2)nc(-c2ccc(NC(=S)NCCO)cc2)n1
6. CCSc1nc(=S)n(-c2ccccc2)c(C)c1C(C)=O
7. O=C(O)c1c2c(cc3c1CC1(Cc4cc5c(cc4C1=O)CCC5)C3)CCC2 (stereo unspecified)

(A)
> 100 µM
> 100 µM
> 46.4 µM
> 100 µM
28.6 µM
> 100 µM
> 100 µM

For every item below, please supply its TGI.
1. Clc1ccc2nc(CI)c(CI)nc2c1
2. O=C(c1cccnc1)N1N=C(c2ccccc2)CC1(O)c1cc(F)c(Cl)cc1Cl (stereo unspecified)
3. C=CCN1/C(=C2\SC(=S)N(c3ccc(C)cc3)C2=O)Sc2c1ncn(C)c2=O
4. O=C(c1cccs1)N1CCCN(C(=O)c2cccs2)C1=S
5. O=c1[nH]c2nccn2c2c1SCCN2
6. Cc1ccc(N=Nc2c(O)ccc3cc(S(=O)(=O)O)ccc23)cc1
7. Cc1ccc(S(=O)(=O)OC(COC(=O)c2ccccc2)C(OS(=O)(=O)c2ccc(C)cc2)C(OS(=O)(=O)c2ccc(C)cc2)C(COC(=O)c2ccccc2)OS(=O)(=O)c2ccc(C)cc2)cc1 (stereo unspecified)
8. Cc1ccc(S(=O)(=O)N/N=C2\CC3CC4CCC2C4C3)cc1 (stereo unspecified)

(A)
1: 9.06 µM; 2: 51.3 µM; 3: > 100 µM; 4: > 100 µM; 5: > 100 µM; 6: > 100 µM; 7: > 100 µM; 8: > 100 µM
